All figures here come from patent US3968100A.

system: Proteus vulgaris OX 19; assay: antibacterial spectrum by the broth dilution method (MIC); assay type: cell-based; details: OX19; Proteus vulgaris OX 19, broth dilution; read-out: Minimum inhibitory concentration
Entries annotated with measured MIC

Example entries begin here.
>>> result("C[C@H]1O[C@H](O[C@H]2[C@H](O)[C@@H](O)[C@@H](O)[C@H](O)[C@@H]2O)[C@@H](N)C[C@@H]1NC(=N)NCCS(=O)(=O)O")
"> 100 µg/mL"
>>> result("C[C@H]1O[C@H](O[C@H]2[C@H](O)[C@@H](O)[C@@H](O)[C@H](O)[C@@H]2O)[C@@H](N)C[C@@H]1NC(=N)C(=O)O")
"100 µg/mL"
>>> result("CNCCN(C)C(=N)N[C@H]1C[C@H](N)[C@@H](O[C@H]2[C@H](O)[C@@H](O)[C@@H](O)[C@H](O)[C@@H]2O)O[C@@H]1C")
"50 µg/mL"
>>> result("C[C@H]1O[C@H](O[C@H]2[C@H](O)[C@@H](O)[C@@H](O)[C@H](O)[C@@H]2O)[C@@H](N)C[C@@H]1NC(=N)NCCCCN")
"1.56 µg/mL"

Now for the compound whose MIC we want.
Input `C[C@H]1O[C@H](O[C@H]2[C@H](O)[C@@H](O)[C@@H](O)[C@H](O)[C@@H]2O)[C@@H](N)C[C@@H]1NC(=N)NCCN` . Output MIC: 0.78 µg/mL

====

test: acute toxicity to mice injected intravenously; format: in vivo; settings: mouse, in vivo, iv
Property measured: LD50
Don't forget the unit after the number, please.

Input C[C@H]1O[C@H](O[C@H]2[C@H](O)[C@@H](O)[C@@H](O)[C@H](O)[C@@H]2O)[C@@H](N)C[C@@H]1NC(=N)NCCN [kasugamycin-KG-8] . Output LD50: 380 mg/kg

====

Please consider the recorded MIC for Escherichia coli NIHJ in what follows.
Report as a plain number; the unit µg/mL is understood.

>>> number("C[C@H]1O[C@H](O[C@H]2[C@H](O)[C@@H](O)[C@@H](O)[C@H](O)[C@@H]2O)[C@@H](N)C[C@@H]1NC(=N)NCCN")
0.78

Now for the molecule whose MIC we want.
`CNCCN(C)C(=N)N[C@H]1C[C@H](N)[C@@H](O[C@H]2[C@H](O)[C@@H](O)[C@@H](O)[C@H](O)[C@@H]2O)O[C@@H]1C` tested on Escherichia coli NIHJ gave MIC: 100
